Test system: SK-OV-3 ovarian
Method: NCI-60 one-dose screen, 48 h
Experimental parameters: 10 µM unless noted
The panel holds about 83,000 compounds, 20% with a hit somewhere; the sample as a whole holds those more often. The source made the active and inactive calls. Rule for the calls: active = growth percent below 10; inactive = the rest.
Outcomes: active, inactive

compound=CCCc1[nH]c(-c2cc(N)ccc2Cl)c2c1C(=O)CCCC2 target_or_test_system="SK-OV-3 ovarian" class=inactive
compound=CCc1cc(OC(=O)N2CCN(CCC(C)(COC(C)(C)C)COC(C)(C)C)CC2)ccc1Nc1cc(-c2ccc(-n3cccn3)cc2)[nH]n1 target_or_test_system="SK-OV-3 ovarian" class=inactive
compound=COc1ccc(C(C)=C(c2ccc(OCCN3CCCCCC3)cc2)c2ccc(OCCN3CCCCCC3)cc2)cc1 target_or_test_system="SK-OV-3 ovarian" class=inactive
compound=Cc1ccc(S(=O)(=O)NCCCNc2nc(Nc3ccc(N4CCN(C)CC4)cc3)nc3ccsc23)cc1 target_or_test_system="SK-OV-3 ovarian" class=inactive
compound=COc1ccc(NC(=O)CCCCCCNC(=O)C(O)(O)C(F)(F)F)cc1 target_or_test_system="SK-OV-3 ovarian" class=active
compound=C#C[C@]1(O)CC[C@H]2[C@@H]3CC=C4c5sc(Nc6cc(Cl)ccc6OC)nc5CC[C@]4(C)[C@H]3CC[C@@]21C target_or_test_system="SK-OV-3 ovarian" class=active
compound=CC(=O)N(O)CCCCCNC(=O)CCC(=O)N(O)CCCCCNC(=O)CCC(=O)N(O)CCCCCN(CCCCCCCCCC[P+](c1ccccc1)(c1ccccc1)c1ccccc1)CCCCCCCCCC[P+](c1ccccc1)(c1ccccc1)c1ccccc1 target_or_test_system="SK-OV-3 ovarian" class=active
compound=CC1(C)CC[C@]23CC[C@]4(C)[C@H](CC[C@@H]5[C@@]6(C)CC[C@H](N)C(C)(C)[C@@H]6CC[C@]54C)[C@H]2[C@H]1OC3 target_or_test_system="SK-OV-3 ovarian" class=inactive
compound=Cc1ccc(C(=O)Nc2ccc(CNCCN3CCOCC3)c(C(F)(F)F)c2)cc1C#Cc1cnc2cccnn12 target_or_test_system="SK-OV-3 ovarian" class=inactive
compound="CC(=O)C1=C(C)NC(NNc2ccccc2)=NC1c1ccc([N+](=O)[O-])cc1 (centres undefined)" target_or_test_system="SK-OV-3 ovarian" class=inactive
compound=O=c1c2ccccc2cc2n1CCN=C2c1ccccc1 target_or_test_system="SK-OV-3 ovarian" class=inactive
compound=CCc1cc2c(cc1Cl)nc1c(=O)[nH]c(=O)nc-1n2CCOCC(C)C target_or_test_system="SK-OV-3 ovarian" class=inactive
compound=COc1cc2cc(Oc3ccc(NC(=O)c4cc(C(F)(F)F)cc(C(F)(F)F)c4)cc3)c(C)nc2cc1OCCN1CCOCC1 target_or_test_system="SK-OV-3 ovarian" class=inactive
compound=CCCCOc1ccc(S(=O)(=O)N2CCN(c3nc(C)cc(N4CCOCC4)n3)CC2)cc1 target_or_test_system="SK-OV-3 ovarian" class=active
compound=N/C(=N\C(N)=N\c1nc2ccccc2s1)c1ccc(Cl)cc1 target_or_test_system="SK-OV-3 ovarian" class=inactive
compound=COc1ccc(N2CCN(C3=C(Cl)C(=O)c4ncccc4C3=O)CC2)cc1 target_or_test_system="SK-OV-3 ovarian" class=inactive
compound=CC(=O)/C(N=Nc1ccc2oc(=O)ccc2c1)=C(\C)O target_or_test_system="SK-OV-3 ovarian" class=inactive
compound=CC(=O)Nc1ccccc1-c1nc2ccccc2s1 target_or_test_system="SK-OV-3 ovarian" class=inactive
compound=Cc1ccc([C@H]2c3[nH]c4ccccc4c3C[C@H]3C(=O)N(CCCCCCC(=O)NO)CC(=O)N23)s1 target_or_test_system="SK-OV-3 ovarian" class=inactive
compound=O=S(=O)(NCCCNc1nccc(-c2[nH]c(-c3ccccc3)nc2-c2ccc(F)c(O)c2)n1)c1cccc(F)c1 target_or_test_system="SK-OV-3 ovarian" class=inactive
compound=CC(=C(c1ccc(OCCCN(C)C)cc1)c1ccc(OCCCN(C)C)cc1)c1ccc(Cl)cc1 target_or_test_system="SK-OV-3 ovarian" class=inactive
compound="CC(Nc1c(C#N)cnc2ccc(-c3cncc(-c4n[nH]c(=O)o4)c3)cc12)c1ccccc1 (centres undefined)" target_or_test_system="SK-OV-3 ovarian" class=active
compound=C#Cc1nc(/C=C/C(=O)NO)cs1 target_or_test_system="SK-OV-3 ovarian" class=inactive
compound=Cn1cc(-c2nc(N)nnc2-c2c[nH]c3ccc(Br)cc23)c2cc(F)ccc21 target_or_test_system="SK-OV-3 ovarian" class=inactive

---

Below, each entry is listed alongside its reported growth.
Test system: UO-31 renal
Method: NCI-60 one-dose screen, 48 h (100 = growth as untreated, 0 = no growth, -100 = all killed)
Experimental parameters: 10 µM unless noted
Compounds without any hit were thinned out: in the full panel of roughly 83,000, 20% have a hit.
Recorded metric: growth (%)

chemical_string=COc1ccc(CC(C)=C(c2ccc(OCCN3CCCC3)cc2)c2ccc(OCCN3CCCC3)cc2)cc1 target_or_test_system="UO-31 renal" endpoint_result=-94.9
chemical_string=CC(C)NC(=O)c1cc(-c2ccc(NC(=O)Nc3ccc(F)c(C(F)(F)F)c3)cc2)nc2cccnc12 target_or_test_system="UO-31 renal" endpoint_result=92.3
chemical_string=Cc1ccc(S(=O)(=O)NCCCNc2nccc(-c3[nH]c(-c4ccccc4)nc3-c3ccc(F)c(O)c3)n2)cc1 target_or_test_system="UO-31 renal" endpoint_result=115
chemical_string=CC(=O)Nc1nc(C)c(-c2csc(Nc3ccccc3)n2)s1 target_or_test_system="UO-31 renal" endpoint_result=10.9
chemical_string=CCOC(=O)c1cccc(NC2=C(Cl)C(=O)C(C)=C(C)C2=O)c1 target_or_test_system="UO-31 renal" endpoint_result=96.7
chemical_string=C/C(=N\NC(=O)Nc1ccccc1)c1nnn(-c2ccc([N+](=O)[O-])cc2)c1C target_or_test_system="UO-31 renal" endpoint_result=72.4

---

Tested on: MALME-3M melanoma
Method: NCI-60 one-dose screen, 48 h (100 = growth as untreated, 0 = no growth, -100 = all killed)
Experimental parameters: 10 µM unless noted
Procedure: Cells are grown in 96 well plates and exposed to the test compound for 48 hours. Compounds are tested at a single concentration, which is 10^-5 M for most compounds. The reported endpoint is percent growth (GI% or GIPRCNT), where numbers from 0 - 100% represent growth inhibition, and numbers from -100% - 0 represent cell death. For example, a value of 40 represents 60% growth inhibition. A value of 0 means no net growth occurred over the course of the experiment. […]
The panel holds about 83,000 compounds, 20% with a hit somewhere; the sample as a whole holds those more often. The source made the active and inactive calls. Rule for the calls: active = growth percent below 10; inactive = the rest.
This listing pairs compounds with measured growth.
Recorded metric: growth

compound=Cc1ccc2c(n1)C(=O)C(Cl)=C(Nc1ccc(C(C)C)cc1)C2=O endpoint_result="-33.9% (active)"
compound=Cc1ccc([C@H]2c3[nH]c4ccccc4c3C[C@H]3C(=O)N(CCCCCCC(=O)NO)CC(=O)N23)s1 endpoint_result="22.9% (inactive)"
compound=CC[C@H](CC[C@@H](C)[C@H]1CC[C@H]2[C@@H]3CC(=O)C4=CC(=O)/C(=C/c5ccc([N+](=O)[O-])cc5)C[C@]4(C)[C@H]3CC[C@]12C)C(C)C endpoint_result="101% (inactive)"
compound=CC(=C(c1ccc(OCCCN(C)C)cc1)c1ccc(OCCCN(C)C)cc1)c1ccc(Cl)cc1 endpoint_result="85.8% (inactive)"
compound="C=CCSC1=NC2C(N(CC)C(=O)N2CC)N1/N=C/C=C/c1ccccc1OC (configuration not stated)" endpoint_result="72.2% (inactive)"
compound="CCCCN1C(=O)/C(=c2\\sc3n(c2=O)C2C(NN=3)N(CC)C(=O)N2CC)c2cc(C)ccc21 (configuration not stated)" endpoint_result="89.3% (inactive)"
compound=COc1ccc(CC(C)=C(c2ccc(OCCN3CCCC3)cc2)c2ccc(OCCN3CCCC3)cc2)cc1 endpoint_result="-82.9% (active)"
compound=CNCCN(C)c1ccc(Nc2cc(NC3CC3)n3ncc(C#N)c3n2)cc1NC(C)=O endpoint_result="-5.08% (active)"
compound=Cn1cc(-c2nc(N)nnc2-c2c[nH]c3ccc(Br)cc23)c2cc(F)ccc21 endpoint_result="94.2% (inactive)"
compound=O=C(O)c1ccc(-n2c(=O)n(-c3cccc(C(F)(F)F)c3)c(=O)c3cc(-c4ccc(F)cc4F)ccc32)cc1 endpoint_result="-12.8% (active)"
compound=O=C(CSc1nc2ccccc2c(=O)n1-c1ccccc1)N/N=C/c1ccc(Oc2ccc(Br)cc2)cc1 endpoint_result="54.9% (inactive)"
compound=CCCNNC(=O)c1ccc(-c2ccc(NC(=O)CCCCCCC(=O)N[C@H](C(=O)N3C[C@H](O)C[C@H]3C(=O)N[C@@H](C)c3ccc(-c4scnc4C)cc3)C(C)(C)C)cc2)cc1 endpoint_result="32% (inactive)"

---

System: HCT-15 colon
Method: NCI-60 one-dose screen, 48 h (100 = growth as untreated, 0 = no growth, -100 = all killed)
Experimental parameters: 10 µM unless noted
The panel holds about 83,000 compounds, 20% with a hit somewhere; the sample as a whole holds those more often.
Reported growth is given for each of the following compounds.
Recorded metric: growth (%)

chemical_string=O=C(COc1ccc(/C=C2\C(=O)Nc3cc(Cl)ccc32)cc1)Nc1ccc(Cl)cc1 endpoint_result=42.5
chemical_string=CN1CCN(Cc2ccc(NC(=O)c3cncc(C#Cc4cnc5ccc(O[C@@H]6CCOC6)nn45)c3)cc2C(F)(F)F)CC1 endpoint_result=-40.4
chemical_string=COc1cc2cc(Oc3ccc(NC(=O)Nc4ccc(F)c(C(F)(F)F)c4)cc3)c(C)nc2cc1OCCN(C)C endpoint_result=29.2
